- target-desc: D(2) dopamine receptor (Rattus norvegicus)
- procedure-details: Displacement of [3H]raclopride from dopamine D2 receptor in rat caudate membranes
- Format: cell membranes, Membrane
Entries annotated with measured log10(Ki)
value-type: log10(Ki) (log10 of the value in nM)

| compound | log10(Ki) |
| --- | --- |
| C[C@@H]1CN(c2cccc3cc(F)ccc23)CCN1CC[C@@H]1OCCc2cc(C(N)=O)ccc21 | 1.85 |
| NC(=O)c1ccc2c(c1)CCOC2CCN1CC=C(c2c[nH]c3cc(F)ccc23)CC1 (stereo unspecified) | 1.62 |
| C[C@@H]1CN(c2cccc3cc(F)ccc23)CCN1CC[C@H]1OCCc2cc(C(N)=O)ccc21 | 1.89 |
| C[C@H]1CN(c2cccc3cc(F)ccc23)CCN1CC[C@H]1OCc2cc(C(N)=O)ccc21 | 2.03 |
| N#Cc1ccc2c(N3CCN(CC[C@@H]4OCCc5cc(C(N)=O)ccc54)CC3)cccc2c1 | 1.94 |
| C[C@H]1CN(c2ccc3cc(F)ccc3c2)CCN1CC[C@@H]1OCCc2cc(C(N)=O)ccc21 | 3.07 |

###

- target-desc: Adrenergic receptor alpha-1 (Rattus norvegicus, UniProt P15823+P23944+P43140)
- procedure-details: Displacement of [3H]prazosin from adrenergic alpha-1 receptor in rat cortical membranes
- Format: cell membranes, Membrane

| compound | Ki |
| --- | --- |
| C[C@H]1CN(c2cccc3cc(C#N)ccc23)CCN1CC[C@@H]1OCCc2cc(C(N)=O)ccc21 | 353 nM |
| N#Cc1ccc2c(N3CCN(CC[C@@H]4OCCc5cc(C(N)=O)ccc54)CC3)cccc2c1 | 178 nM |
| C[C@H]1CN(c2cccc3cc(C#N)ccc23)CCN1CC[C@H]1OCc2cc(C(N)=O)ccc21 | 338 nM |
| C[C@@H]1CN(c2cccc3cc(F)ccc23)CCN1CC[C@H]1OCCc2cc(C(N)=O)ccc21 | 74 nM |
| NC(=O)c1ccc2c(c1)CCO[C@H]2CCN1CCN(c2ccc3cc(F)ccc3c2)CC1 | 96 nM |
| C[C@H]1CN(c2cccc3cc(F)ccc23)CCN1CC[C@@H]1OCc2cc(C(N)=O)ccc21 | 64 nM |
| C[C@H]1CN(c2cccc3cc(F)ccc23)CCN1CC[C@H]1OCc2cc(C(N)=O)ccc21 | 43 nM |
| C[C@@H]1CN(c2cccc3cc(F)ccc23)CCN1CC[C@@H]1OCCc2cc(C(N)=O)ccc21 | 80 nM |
| C[C@H]1CN(c2ccc3cc(F)ccc3c2)CCN1CC[C@@H]1OCCc2cc(C(N)=O)ccc21 | 91 nM |
| C[C@@H]1CN(c2cccc3cc(F)ccc23)CCN1CCC1OCCc2cc(C(N)=O)ccc21 (stereo partly specified) | 16 nM |
| NC(=O)c1ccc2c(c1)CCOC2CCN1CC=C(c2c[nH]c3cc(F)ccc23)CC1 (stereo unspecified) | 0.7 nM |

###

pKi: −log10 of the molar value.
A set of molecules tested on 5-hydroxytryptamine receptor 1B (Homo sapiens), with measured pKi:

| molecule | target-desc | pKi |
| --- | --- | --- |
| C[C@H]1CN(c2cccc3cc(C#N)ccc23)CCN1CC[C@H]1OCc2cc(C(N)=O)ccc21 | 5-hydroxytryptamine receptor 1B (Homo sapiens) | 7.06 |
| N#Cc1ccc2c(N3CCN(CC[C@@H]4OCCc5cc(C(N)=O)ccc54)CC3)cccc2c1 | 5-hydroxytryptamine receptor 1B (Homo sapiens) | 7.82 |
| C[C@H]1CN(c2cccc3cc(C#N)ccc23)CCN1CC[C@@H]1OCCc2cc(C(N)=O)ccc21 | 5-hydroxytryptamine receptor 1B (Homo sapiens) | 7.68 |
| NC(=O)c1ccc2c(c1)CCOC2CCN1CC=C(c2c[nH]c3cc(F)ccc23)CC1 (centres undefined) | 5-hydroxytryptamine receptor 1B (Homo sapiens) | 6.69 |

###

Measured pKi of individual entries
- target-desc: D(2) dopamine receptor (Rattus norvegicus, UniProt P61169)
- Sequence (P61169 whole entry): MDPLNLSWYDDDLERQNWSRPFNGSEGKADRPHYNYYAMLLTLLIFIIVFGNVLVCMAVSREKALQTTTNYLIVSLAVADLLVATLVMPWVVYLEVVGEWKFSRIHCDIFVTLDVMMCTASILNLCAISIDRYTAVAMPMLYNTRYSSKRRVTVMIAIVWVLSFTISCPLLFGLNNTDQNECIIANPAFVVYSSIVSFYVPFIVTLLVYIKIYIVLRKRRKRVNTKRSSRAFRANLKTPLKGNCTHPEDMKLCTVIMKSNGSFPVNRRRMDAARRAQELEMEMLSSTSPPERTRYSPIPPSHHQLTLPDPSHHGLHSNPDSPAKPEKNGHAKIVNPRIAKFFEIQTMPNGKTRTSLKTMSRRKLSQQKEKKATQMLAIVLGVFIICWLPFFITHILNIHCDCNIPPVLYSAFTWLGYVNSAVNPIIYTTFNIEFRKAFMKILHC
- procedure-details: Displacement of [3H]raclopride from dopamine D2 receptor in rat caudate membranes
pKi: −log10 of the molar value.

| compound | pKi |
| --- | --- |
| C[C@H]1CN(c2cccc3cc(C#N)ccc23)CCN1CC[C@@H]1OCCc2cc(C(N)=O)ccc21 | 6.54 |
| C[C@H]1CN(c2cccc3cc(C#N)ccc23)CCN1CC[C@H]1OCc2cc(C(N)=O)ccc21 | 6.46 |
| C[C@H]1CN(c2cccc3cc(F)ccc23)CCN1CC[C@@H]1OCc2cc(C(N)=O)ccc21 | 7.59 |
| NC(=O)c1ccc2c(c1)CCO[C@H]2CCN1CCN(c2ccc3cc(F)ccc3c2)CC1 | 6.15 |
| C[C@@H]1CN(c2cccc3cc(F)ccc23)CCN1CCC1OCCc2cc(C(N)=O)ccc21 (stereo not given in full) | 8.33 |

###

- target-desc: 5-hydroxytryptamine receptor 1D (Homo sapiens, UniProt P28221)
- Sequence (P28221 whole entry): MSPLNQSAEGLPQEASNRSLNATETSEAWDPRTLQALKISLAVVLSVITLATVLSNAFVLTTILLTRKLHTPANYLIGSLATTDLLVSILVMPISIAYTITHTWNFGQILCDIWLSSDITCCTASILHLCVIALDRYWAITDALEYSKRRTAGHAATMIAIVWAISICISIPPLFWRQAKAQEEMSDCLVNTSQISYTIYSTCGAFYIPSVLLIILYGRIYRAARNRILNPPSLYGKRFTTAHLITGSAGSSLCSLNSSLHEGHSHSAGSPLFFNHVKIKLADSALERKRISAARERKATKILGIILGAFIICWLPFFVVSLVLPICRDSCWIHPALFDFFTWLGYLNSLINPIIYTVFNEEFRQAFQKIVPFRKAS
- procedure-details: Antagonist activity at human 5HT1D expressed in LM(tk-) cells by [35S]GTPgamma binding assay
- Format: functional, cell-based
value-type: log10 of Kb (log10 of the value in nM)

| molecule | recorded-value |
| --- | --- |
| C[C@@H]1CN(c2cccc3cc(F)ccc23)CCN1CCC1OCCc2cc(C(N)=O)ccc21 (some centres undefined) | -2.00 |
| C[C@H]1CN(c2cccc3cc(F)ccc23)CCN1CC[C@@H]1OCc2cc(C(N)=O)ccc21 | -1.30 |
| NC(=O)c1ccc2c(c1)CCOC2CCN1CC=C(c2c[nH]c3cc(F)ccc23)CC1 (centres undefined) | 0.63 |
| NC(=O)c1ccc2c(c1)CCO[C@H]2CCN1CCN(c2ccc3cc(F)ccc3c2)CC1 | -0.07 |
| C[C@H]1CN(c2cccc3cc(F)ccc23)CCN1CC[C@H]1OCc2cc(C(N)=O)ccc21 | 0.28 |
| C[C@H]1CN(c2cccc3cc(C#N)ccc23)CCN1CC[C@H]1OCc2cc(C(N)=O)ccc21 | -0.74 |
| C[C@H]1CN(c2ccc3cc(F)ccc3c2)CCN1CC[C@@H]1OCCc2cc(C(N)=O)ccc21 | 0.61 |
| C[C@@H]1CN(c2cccc3cc(F)ccc23)CCN1CC[C@@H]1OCCc2cc(C(N)=O)ccc21 | -2.00 |
| C[C@@H]1CN(c2cccc3cc(F)ccc23)CCN1CC[C@H]1OCCc2cc(C(N)=O)ccc21 | 1.05 |

###

The reader will find Ki measurements below, all made with 5-hydroxytryptamine receptor 1D (Homo sapiens).
value-type: Ki (nM)

| molecule | recorded-value |
| --- | --- |
| C[C@H]1CN(c2cccc3cc(C#N)ccc23)CCN1CC[C@H]1OCc2cc(C(N)=O)ccc21 | 1.8 |
| C[C@@H]1CN(c2cccc3cc(F)ccc23)CCN1CCC1OCCc2cc(C(N)=O)ccc21 (stereo partly specified) | 56 |
| C[C@@H]1CN(c2cccc3cc(F)ccc23)CCN1CC[C@@H]1OCCc2cc(C(N)=O)ccc21 | 7 |
| N#Cc1ccc2c(N3CCN(CC[C@@H]4OCCc5cc(C(N)=O)ccc54)CC3)cccc2c1 | 1 |
| C[C@H]1CN(c2cccc3cc(C#N)ccc23)CCN1CC[C@@H]1OCCc2cc(C(N)=O)ccc21 | 0.9 |
| NC(=O)c1ccc2c(c1)CCOC2CCN1CC=C(c2c[nH]c3cc(F)ccc23)CC1 (stereo unspecified) | 8 |

###

A short record of Ki observed with Sodium-dependent serotonin transporter (Homo sapiens, UniProt P31645) follows.
Sequence (P31645 whole entry): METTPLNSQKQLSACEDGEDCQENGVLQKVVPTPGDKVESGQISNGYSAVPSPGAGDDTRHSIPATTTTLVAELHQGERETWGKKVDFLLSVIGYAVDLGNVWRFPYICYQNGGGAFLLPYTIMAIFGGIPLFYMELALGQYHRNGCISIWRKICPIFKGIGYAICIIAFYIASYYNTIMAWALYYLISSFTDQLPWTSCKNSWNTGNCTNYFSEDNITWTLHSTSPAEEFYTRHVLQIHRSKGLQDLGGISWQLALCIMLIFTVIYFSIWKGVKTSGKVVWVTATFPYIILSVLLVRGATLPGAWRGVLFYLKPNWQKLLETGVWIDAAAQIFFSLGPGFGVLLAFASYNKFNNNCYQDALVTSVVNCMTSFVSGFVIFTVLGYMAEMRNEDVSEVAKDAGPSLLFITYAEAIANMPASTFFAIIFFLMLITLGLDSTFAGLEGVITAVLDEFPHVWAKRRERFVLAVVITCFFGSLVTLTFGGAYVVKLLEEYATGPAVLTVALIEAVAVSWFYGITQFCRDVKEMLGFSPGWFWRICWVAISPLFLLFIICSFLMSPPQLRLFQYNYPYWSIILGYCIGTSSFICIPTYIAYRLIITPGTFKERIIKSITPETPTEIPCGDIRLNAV

| compound | unit-abbreviation | Ki |
| --- | --- | --- |
| C[C@@H]1CN(c2cccc3cc(F)ccc23)CCN1CC[C@H]1OCCc2cc(C(N)=O)ccc21 | nM | 7.4 |
| NC(=O)c1ccc2c(c1)CCOC2CCN1CC=C(c2c[nH]c3cc(F)ccc23)CC1 (stereo not given) | nM | 0.1 |
| NC(=O)c1ccc2c(c1)CCO[C@H]2CCN1CCN(c2ccc3cc(F)ccc3c2)CC1 | nM | 8.1 |
| C[C@@H]1CN(c2cccc3cc(F)ccc23)CCN1CCC1OCCc2cc(C(N)=O)ccc21 (stereo not given in full) | nM | 0.8 |
| N#Cc1ccc2c(N3CCN(CC[C@@H]4OCCc5cc(C(N)=O)ccc54)CC3)cccc2c1 | nM | 5.7 |

###

Recorded Ki by entry
- target-desc: 5-hydroxytryptamine receptor 1A (Homo sapiens, UniProt P08908)
- Sequence (P08908 whole entry): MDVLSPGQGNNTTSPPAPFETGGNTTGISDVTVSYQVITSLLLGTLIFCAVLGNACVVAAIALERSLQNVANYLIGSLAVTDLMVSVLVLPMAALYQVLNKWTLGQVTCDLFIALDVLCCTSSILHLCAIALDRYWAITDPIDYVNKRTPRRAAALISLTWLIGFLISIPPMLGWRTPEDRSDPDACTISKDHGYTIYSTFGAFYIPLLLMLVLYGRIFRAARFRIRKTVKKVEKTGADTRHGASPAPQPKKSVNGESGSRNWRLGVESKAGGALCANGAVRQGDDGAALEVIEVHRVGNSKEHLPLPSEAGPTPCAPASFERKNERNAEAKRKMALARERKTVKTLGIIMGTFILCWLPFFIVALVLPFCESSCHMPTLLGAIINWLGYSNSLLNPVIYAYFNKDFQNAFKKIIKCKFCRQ
value-type: Ki (µM)

| query-smiles | target-desc | value-type | recorded-value |
| --- | --- | --- | --- |
| C[C@H]1CN(c2ccc3cc(F)ccc3c2)CCN1CC[C@@H]1OCCc2cc(C(N)=O)ccc21 | 5-hydroxytryptamine receptor 1A (Homo sapiens, UniProt P08908) | Ki | 0.307 |
| N#Cc1ccc2c(N3CCN(CC[C@@H]4OCCc5cc(C(N)=O)ccc54)CC3)cccc2c1 | 5-hydroxytryptamine receptor 1A (Homo sapiens, UniProt P08908) | Ki | 0.016 |
| C[C@@H]1CN(c2cccc3cc(F)ccc23)CCN1CC[C@H]1OCCc2cc(C(N)=O)ccc21 | 5-hydroxytryptamine receptor 1A (Homo sapiens, UniProt P08908) | Ki | 0.105 |
| C[C@@H]1CN(c2cccc3cc(F)ccc23)CCN1CC[C@@H]1OCCc2cc(C(N)=O)ccc21 | 5-hydroxytryptamine receptor 1A (Homo sapiens, UniProt P08908) | Ki | 0.115 |

// data source = ChEMBL document CHEMBL1148000
